molecular target: RanGTP-importin-beta complex (human Ran / KPNB1); assay: disruptors of RanGTP/KPNB1 binding – biochemical, FRET, CFP/YFP, cell-free homogeneous, confirmation (AID 2823); conditions: CFP-Ran/YFP-importin-beta FRET ratio
The source made the active and inactive calls. The rule behind the calls is not given here.
# output must be one of yes = active, no = inactive

Prompt: // param item: `CC(C)c1cc(N2CCN(C(=O)c3ccco3)CC2)n2c(nc3ccccc32)c1C#N` ; yields the recorded call
Completion: yes

Prompt: // param item: `COC(=O)C1=CN(Cc2ccccc2)C=C(C(=O)OC)C1c1ccc(O)c(OC)c1` ; yields the recorded call
Completion: no

Prompt: // param item: `Cc1cc(C(=O)O)ccc1-c1ccc(/C=C2\NC(=O)N(Cc3ccccc3Cl)C2=O)o1` ; yields the recorded call
Completion: yes

Prompt: // param item: `COc1ccc(-c2nc3ccc(C(=O)NCCCN4CCOCC4)cc3nc2-c2ccc(OC)cc2)cc1` ; yields the recorded call
Completion: yes

Please find the next molecule below.
Prompt: // param item: `Cc1ccc(-c2cc3nc(-c4ccccc4)cc(N4CCC5(CC4)OCCO5)n3n2)cc1` ; yields the recorded call
Completion: yes

Origin of values: PubChem BioAssay AID2823
